Source: the supplement of paper PMC9732359

Attribute: protein stability index
ASSAY_TEXT: protein stability index of a GFP-peptide fusion (yeast GPS) (PSI 1-4); higher = more stable; sorted into four equal gates, so the index is relative within each strain
PARTICULARS: doa10∆
Provide a numeric answer; units are not to be included.

Solved cases below.
- SEQUENCE_CHAIN: "IQHVGMINGRKLIKFET [FAS1]"
  protein stability index: 2.82
- SEQUENCE_CHAIN: "TLILIQNPENLLSEKIL [SIR3]"
  protein stability index: 2.98
- SEQUENCE_CHAIN: "ERGHPKDNARIYQVPEK [POP1]"
  protein stability index: 3.02
- SEQUENCE_CHAIN: "SMCGFEVRILPRQRMEE [PRP8]"
  protein stability index: 2.29
- SEQUENCE_CHAIN: "NSNTNLNSLSPQAILAK [SWI1]"
  protein stability index: 2.28

Record PVPSDSTRKKGGRRGRR [RPS14B] , field protein stability index: 3.22

Just so you know, measured protein stability index for DSYGQGSMTKTWYVGNS [SSN2] came out at 2.94

Form field protein stability index, entry DRNNSTNQIFQSRRYNL [SIN4] : 2.78

Briefly, protein stability index measured for MGAINNNIPSLTSFAEE [SNF6] : 3.2

====

ASSAY_TEXT: protein stability index of a GFP-peptide fusion (yeast GPS) (PSI 1-4); higher = more stable; sorted into four equal gates, so the index is relative within each strain
PARTICULARS: pdr5∆
Each entry falls in a class defined on protein stability index; the bands are low-valued = under 2, mid-valued = from 2 up to 3, high-valued = 3 and over

Some entries whose results are on file:
- SEQUENCE_CHAIN: "EREPVPLGILHIPICVT [RRP45]"
  CLASSIFICATION: "low-valued"
- SEQUENCE_CHAIN: "AKLLQENDTTLVKTKEL [FAS1]"
  CLASSIFICATION: "mid-valued"
- SEQUENCE_CHAIN: "DKTLRLWDVATGETYQR [ASC1]"
  CLASSIFICATION: "high-valued"
- SEQUENCE_CHAIN: "QIPLHRAASVGSLKLIE [NAS6]"
  CLASSIFICATION: "mid-valued"
- SEQUENCE_CHAIN: "LLSFVLGVVFGRGGSGW [YML031W/NDC1]"
  CLASSIFICATION: "mid-valued"

[Q] Would you mind sorting DLCDVVESKFTEKIKSM [RPC19] into the appropriate category?
[A] mid-valued

[Q] Lab note: which band did ILDNTENYDDTELRQLF [DSN1] land in?
[A] high-valued

====

ASSAY_TEXT: protein stability index of a GFP-peptide fusion (yeast GPS) (PSI 1-4); higher = more stable; sorted into four equal gates, so the index is relative within each strain
PARTICULARS: pdr5∆
MEASUREMENT_NAME: protein stability index
The reply should be a number, written without any unit.

- SEQUENCE_CHAIN: "TIVGVKFNNGVVIAADT [PUP1]"
  OBSERVED_MEASUREMENT: 2.55
- SEQUENCE_CHAIN: "GAVSLNPSITRLEEESS [RRP4]"
  OBSERVED_MEASUREMENT: 3.03
- SEQUENCE_CHAIN: "LLPQWDDDQIESLKKSP [ARP9]"
  OBSERVED_MEASUREMENT: 3.15

Entry TTSLNPIQSKVFHAAFE [BRR2] — recorded protein stability index = 2.56

// field: protein stability index; key: IYFTVPNEFEIQLSTVN [RGR1] ; value = 2.22

So, TYLLKNDLVKARDLLDD [RPN9] ? Its protein stability index was 2.78

Measured protein stability index, ECFISMQSTSPAVKQWD [SWI1] : 2.38

The reported protein stability index of the sequence YPMMHQVRNQVFMLDTK [RGR1] was 2.35

// sample MIFETIVDGKLKTEKIF [FAS1] , its protein stability index was 2.21

# protein stability index (sequence: ALTQMDQDKVNFASGDN [RPB3] ) is 3.5

Consider ILVKRYSIEMKPYSGKL [ECM29] . Its measured protein stability index is 1.76

Please fill in: protein stability index reported for KSDSQYRFYEYIYSQET [MED1] = 2.44

Notebook: EIELKKLPKVYKRSIVR [SWI1] , protein stability index read as 1.86

Record VAIACDLRLGSQSLGVS [PUP3] , field protein stability index: 2.75

# protein stability index (sequence: YKLFIWLVVPTIYNLQH [YML031W/NDC1] ) is 1.51

PLLYNSLCTVWKPNPSY [SRB5] yielded protein stability index of 1.68

The measured protein stability index associated with LKTDGVRAVSITSFGFG [FAS2] reads 2.15

Briefly, protein stability index measured for NVDQTKTQCPNYDTCGG [RPC11] : 3.15
